Source of measurements: PubChem BioAssay

EXPERIMENT_SUMMARY: viability loss with induced miR-34 in A549 – imaging, A549 dox-inducible miR-34, nuclei and caspase counts, primary screen (AID 1347080); also: test concentration not given here
CONDITION_LABEL: A549 miR-34 inducible, Hoechst nuclei count, 48 h; measured here: relative caspase fold change +Dox/-Dox
Please assign criterion not met whenever fold change is at or above 2, and criterion met whenever it is below.

COMPOUND	GROUP_LABEL
Oc1cccc(O)c1	criterion not met
Cc1cc(C(C)(C)C)c(O)c(C(C)(C)C)c1	criterion met
COc1ccc(-c2cc(C(F)F)nn2-c2ccc(S(N)(=O)=O)cc2)cc1F	criterion not met
CCN(CC)Cc1cc(Nc2ccnc3cc(Cl)ccc23)ccc1O	criterion met
Cc1cc(C)cc(OCC2CNC(=O)O2)c1 (stereo not drawn)	criterion not met

Query: In the record for OCc1ccccc1O , is fold change less than 2?
Response: criterion not met

Query: In the record for OC[C@H]1O[C@@H](Oc2ccc(O)cc2)[C@H](O)[C@@H](O)[C@@H]1O , is fold change less than 2?
Response: criterion met
